species: Homo sapiens; assay: Selectivity index, ratio of IC50 for human recombinant monoamine oxidase-A to IC50 for human recombinant monoamine oxidase-B
RECORDED ENDPOINT: Ratio IC50

[
  {
    "SMILES CODE": "O=C1OCc2ccc(OCC3CCCCC3)cc21",
    "Ratio IC50": 16
  },
  {
    "SMILES CODE": "O=C1OCc2ccc(OCc3ccc(Br)cc3)cc21",
    "Ratio IC50": 96
  },
  {
    "SMILES CODE": "Cc1ccc(CCOc2ccc3c(c2)C(=O)OC3)cc1",
    "Ratio IC50": 90
  },
  {
    "SMILES CODE": "O=C1OCc2ccc(OCCOc3ccc(F)cc3)cc21",
    "Ratio IC50": 43
  },
  {
    "SMILES CODE": "O=C1OCc2ccc(OCc3ccc(C(F)(F)F)cc3)cc21",
    "Ratio IC50": 214
  }
]

A. O=C1OCc2ccc(OCc3ccc(I)cc3)cc21
B. O=C1OCc2ccc(OCc3ccc(F)cc3)cc21
// select label with min value of measured Ratio IC50 from [ A , B ] To answer, give the label that identifies your chosen option.
B
(B: 84, A: 189)

----------
biological target: Amine oxidase [flavin-containing] A (Homo sapiens); test: Competitive inhibition of human recombinant monoamine oxidase-A using kynuramine as substrate by Lineweaver-Burk plot analysis
RECORDED ENDPOINT: Ki (nM)
Write the value in nM as a bare number.

Specify measured Ki for `O=C1OCc2ccc(OCCCc3ccccc3)cc21` .
62

----------
organism: Homo sapiens; test: Selectivity index, ratio of IC50 for human recombinant monoamine oxidase-A to IC50 for human recombinant monoamine oxidase-B
RECORDED ENDPOINT: Ratio IC50

As a guide, the following entries are already answered.
[
  {
    "SMILES CODE": "O=C1OCc2ccc(OCCc3ccc(F)cc3)cc21",
    "QUANTITATIVE READOUT": 16
  },
  {
    "SMILES CODE": "O=C1OCc2ccc(OCCc3ccc(Cl)cc3)cc21",
    "QUANTITATIVE READOUT": 10
  },
  {
    "SMILES CODE": "O=C1OCc2ccccc21",
    "QUANTITATIVE READOUT": 1.6
  },
  {
    "SMILES CODE": "O=C1OCc2ccc(OCCOc3ccc(Br)cc3)cc21",
    "QUANTITATIVE READOUT": 20
  }
]

A. O=C1OCc2ccc(OCCc3ccccc3)cc21
B. O=C1OCc2ccc(OCCCc3ccccc3)cc21
Among A and B , which shows a numerically higher Ratio IC50 result? To answer, give the label that identifies your chosen option.
A

----------
Target: Amine oxidase [flavin-containing] A (Homo sapiens, UniProt P21397)
Sequence (P21397 whole entry): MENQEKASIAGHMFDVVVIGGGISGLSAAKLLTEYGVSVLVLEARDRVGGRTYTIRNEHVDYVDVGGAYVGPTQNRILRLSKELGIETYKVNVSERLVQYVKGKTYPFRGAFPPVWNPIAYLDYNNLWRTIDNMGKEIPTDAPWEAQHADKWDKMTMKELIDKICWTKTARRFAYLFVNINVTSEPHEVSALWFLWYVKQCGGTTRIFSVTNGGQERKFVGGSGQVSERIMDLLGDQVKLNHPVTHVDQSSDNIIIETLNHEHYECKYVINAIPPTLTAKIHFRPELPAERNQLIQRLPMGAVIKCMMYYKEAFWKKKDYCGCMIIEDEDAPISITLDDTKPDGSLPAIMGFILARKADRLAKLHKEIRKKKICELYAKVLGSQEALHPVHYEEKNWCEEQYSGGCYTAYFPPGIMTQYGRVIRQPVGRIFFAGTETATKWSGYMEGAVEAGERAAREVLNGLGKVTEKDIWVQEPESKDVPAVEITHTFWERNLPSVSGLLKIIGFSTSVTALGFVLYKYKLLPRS
Test: Inhibition of human recombinant monoamine oxidase-A assessed as kynuramine conversion to […] after 20 mins by fluorescence spectrophotometric analysis
RECORDED ENDPOINT: IC50 (nM)

As a guide, the following entries are already answered.
[
  {
    "SMILES CODE": "O=C1OCc2ccc(OCCCc3ccccc3)cc21",
    "UNIT OF MEASUREMENT": "nM",
    "IC50": 96
  },
  {
    "SMILES CODE": "O=C1OCc2ccc(OCCOc3ccc(F)cc3)cc21",
    "UNIT OF MEASUREMENT": "nM",
    "IC50": 323
  }
]

1. O=C1OCc2ccc(OCC3CCCCC3)cc21
2. O=C1OCc2ccc(OCCc3ccc(Cl)cc3)cc21
// select label with min value of measured IC50 from [ 1 , 2 ] To answer, give the label that identifies your chosen option.
1
(1: 185 nM, 2: 498 nM)

I. O=C1OCc2ccccc21
II. O=C1OCc2ccc(OCCOc3ccc(Cl)cc3)cc21
III. O=C1OCc2ccc(OCc3cccc(Br)c3)cc21
Put these in order: smallest IC50 first, largest last. Put the labels in the order asked and list them.
II, III, I

A. O=C1OCc2ccc(OCCOc3ccc(Br)cc3)cc21
B. O=C1OCc2ccc(OCc3ccccc3)cc21
C. O=C1OCc2ccc(OCc3ccc(F)cc3)cc21
Please rank these compounds by IC50 in descending order. Put the labels in the order asked and list them.
B, C, A

I. O=C1OCc2ccc(OCCc3ccc(F)cc3)cc21
II. O=C1OCc2ccc(OCc3ccc(I)cc3)cc21
III. O=C1OCc2ccc(OCCc3ccccc3)cc21
Put these in order: smallest IC50 first, largest last. Put the labels in the order asked and list them.
II, I, III
(II: 344 nM, I: 1070 nM, III: 3210 nM)
